Biological target: Endothelin-1 receptor (Rattus norvegicus, UniProt P26684)
Sequence (P26684 whole entry): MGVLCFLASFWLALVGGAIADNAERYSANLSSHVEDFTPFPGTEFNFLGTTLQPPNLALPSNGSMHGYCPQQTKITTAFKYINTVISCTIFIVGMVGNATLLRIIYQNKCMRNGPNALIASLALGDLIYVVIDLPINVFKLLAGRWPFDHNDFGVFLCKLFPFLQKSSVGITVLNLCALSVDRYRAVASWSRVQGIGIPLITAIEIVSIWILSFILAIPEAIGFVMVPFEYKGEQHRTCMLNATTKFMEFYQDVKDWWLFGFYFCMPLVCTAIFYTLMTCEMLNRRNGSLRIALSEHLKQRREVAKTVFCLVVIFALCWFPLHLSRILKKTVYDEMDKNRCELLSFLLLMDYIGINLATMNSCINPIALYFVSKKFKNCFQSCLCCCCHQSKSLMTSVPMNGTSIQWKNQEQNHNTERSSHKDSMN
Assay: Displacement of [125I]endhothelin-1 from ETA receptor in rat MMQ cells Membrane at 25 degC incubated for 3 hrs by radioligand competition binding assay
Assay type: cell membranes
test.readout: IC50 (nM)
Give the number; nM is assumed, so skip it.

[ask] For the molecule CCCCN(CCCC)C(=O)CN1[C@H](c2cc(OC)c3c(c2)OCO3)C[C@@H](C(=O)O)[C@@H]1CC(C)(C)CCC , report IC50.
[reply] 0.56

====

Assay: Cmax in cynomolgus monkey at 5 mg/kg, po administered for 12 hrs by HPLC analysis
Assay type: ADME, organism-based, Macaca fascicularis
Details: in vivo
test.readout: Cmax (ng/mL)
Give the number; ng/mL is assumed, so skip it.

[ask] For the molecule CCCCN(CCCC)C(=O)CN1[C@H](c2cc(OC)c3c(c2)OCO3)C[C@@H](C(=O)O)[C@@H]1CC(C)(C)CCC , report Cmax.
[reply] 1100

====

Target: Endothelin receptor type B (Homo sapiens, UniProt P24530)
Sequence (P24530 whole entry): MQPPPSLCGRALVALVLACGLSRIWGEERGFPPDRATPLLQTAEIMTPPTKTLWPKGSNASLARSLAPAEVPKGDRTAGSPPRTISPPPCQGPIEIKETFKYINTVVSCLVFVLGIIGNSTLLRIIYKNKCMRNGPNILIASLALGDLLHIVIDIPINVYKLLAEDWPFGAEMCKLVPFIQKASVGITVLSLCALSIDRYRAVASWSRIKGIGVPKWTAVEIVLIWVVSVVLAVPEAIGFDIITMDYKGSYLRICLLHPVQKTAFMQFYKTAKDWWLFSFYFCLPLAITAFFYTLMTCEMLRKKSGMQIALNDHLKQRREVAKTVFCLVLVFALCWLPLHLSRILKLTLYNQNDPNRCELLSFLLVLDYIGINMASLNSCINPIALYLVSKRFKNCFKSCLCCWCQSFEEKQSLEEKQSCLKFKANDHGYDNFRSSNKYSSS
Assay: Displacement of [125I]endhothelin-3 from human ETB receptor stably expressed in CHO cells Membrane at 25 degC incubated for 3 hrs by radioligand competition binding assay
test.readout: IC50 (µM)
Give the number; µM is assumed, so skip it.

[ask] For the compound CCCCN(CCCC)C(=O)CN1[C@H](c2cc(OC)c3c(c2)OCO3)C[C@@H](C(=O)O)[C@@H]1CC(C)(C)CCC , report IC50.
[reply] 15.4

====

Experiment: Half life in cynomolgus monkey at 5 mg/kg, po administered for 12 hrs by HPLC analysis
Type: ADME, organism-based, Macaca fascicularis
Settings: in vivo
test.readout: half-life (h)
Give the number; h is assumed, so skip it.

[ask] For the molecule CCCCN(CCCC)C(=O)CN1[C@H](c2cc(OC)c3c(c2)OCO3)C[C@@H](C(=O)O)[C@@H]1CC(C)(C)CCC , report half-life.
[reply] 1

====

Target: Endothelin receptor type B (Homo sapiens, UniProt P24530)
Assay: Binding affinity to ETB receptor (unknown origin) assessed as inhibition constant
Peptide text beside a SMILES is read from it.
test.readout: Ki (nM)
Give the number; nM is assumed, so skip it.

CC(C)C[C@@H]1NC(=O)[C@@H](c2cccs2)NC(=O)[C@H](CC(=O)O)NC(=O)[C@H](CC(=O)N2CCN(c3ccccc3)CC2)NC(=O)[C@@H](CC(=O)O)NC(=O)[C@@H](Cc2c[nH]c3ccccc23)NC1=O (HELM PEPTIDE1{D.D.[O=C([C@H](N[*:1])c1cccs1)[*:2]].L.[dW].[dD]}|CHEM1{[c1ccc(N2CCN([*:1])CC2)cc1]}$PEPTIDE1,CHEM1,1:R3-1:R1|PEPTIDE1,PEPTIDE1,1:R1-6:R2$$$V2.0) :: 590
CC(C)C[C@H](NC(=O)N1CCCCCC1)C(=O)N[C@H](Cc1cn(C)c2ccccc12)C(=O)N[C@H](Cc1ccccn1)C(=O)O :: 7300

[ask] For the compound COc1cc(OC)nc(O[C@@H](C(=O)O)C(OC)(c2ccccc2)c2ccccc2)n1 , report Ki.
[reply] 960

====

Assay: Oral bioavailability in Beagle dog at 5 mg/kg administered for 12 hrs by HPLC analysis
Assay type: ADME, organism-based, Canis lupus familiaris
Conditions: in vivo
test.readout: bioavailability (%)
Give the number; % is assumed, so skip it.

[ask] For the compound CCCCN(CCCC)C(=O)CN1[C@H](c2cc(OC)c3c(c2)OCO3)C[C@@H](C(=O)O)[C@@H]1CC(C)(C)CCC , report bioavailability.
[reply] 19.9

====

Biological target: UniProt:P35463
Sequence (P35463 whole entry): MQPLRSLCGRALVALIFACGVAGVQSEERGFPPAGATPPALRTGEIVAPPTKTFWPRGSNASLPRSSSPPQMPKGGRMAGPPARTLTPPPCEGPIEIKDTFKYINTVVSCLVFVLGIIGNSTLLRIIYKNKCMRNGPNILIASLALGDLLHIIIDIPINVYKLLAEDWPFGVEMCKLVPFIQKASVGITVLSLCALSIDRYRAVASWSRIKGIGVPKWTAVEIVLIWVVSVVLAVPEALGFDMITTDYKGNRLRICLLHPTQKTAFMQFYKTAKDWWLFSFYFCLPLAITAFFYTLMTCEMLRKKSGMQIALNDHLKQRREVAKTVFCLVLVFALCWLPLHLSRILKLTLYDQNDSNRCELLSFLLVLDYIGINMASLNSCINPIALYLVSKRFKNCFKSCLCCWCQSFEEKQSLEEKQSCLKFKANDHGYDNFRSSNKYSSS
Experiment: Displacement of [125I]endhothelin-3 from ETB receptor in porcine Cerebellum Membrane at 25 degC incubated for 3 hrs by radioligand competition binding assay
test.readout: pIC50
Note: pIC50 values are expressed as the negative base-10 logarithm of concentration in M.

[ask] For the compound CCCCN(CCCC)C(=O)CN1[C@H](c2cc(OC)c3c(c2)OCO3)C[C@@H](C(=O)O)[C@@H]1CC(C)(C)CCC , report pIC50.
[reply] 4.78

====

Test: Oral bioavailability in cynomolgus monkey at 5 mg/kg administered for 12 hrs by HPLC analysis
Format: ADME, organism-based, Macaca fascicularis
Details: in vivo
test.readout: bioavailability (%)
Give the number; % is assumed, so skip it.

[ask] For the compound CCCCN(CCCC)C(=O)CN1[C@H](c2cc(OC)c3c(c2)OCO3)C[C@@H](C(=O)O)[C@@H]1CC(C)(C)CCC , report bioavailability.
[reply] 18.1

====

Test: Plasma clearance in Sprague-Dawley rat at 5 mg/kg, iv administered for 12 hrs by reverse phase HPLC-UV analysis
Assay type: ADME, organism-based
test.readout: clearance (L/h/kg)
Give the number; L/h/kg is assumed, so skip it.

[ask] For the molecule CCCCN(CCCC)C(=O)CN1[C@H](c2cc(OC)c3c(c2)OCO3)C[C@@H](C(=O)O)[C@@H]1CC(C)(C)CCC , report clearance.
[reply] 1.5

====

Assay: Cmax in Sprague-Dawley rat at 10 mg/kg, po administered for 12 hrs by HPLC analysis
Assay type: ADME, organism-based
Conditions: in vivo
test.readout: Cmax (ng/mL)
Give the number; ng/mL is assumed, so skip it.

[ask] For the compound CCCCN(CCCC)C(=O)CN1[C@H](c2cc(OC)c3c(c2)OCO3)C[C@@H](C(=O)O)[C@@H]1CC(C)(C)CCC , report Cmax.
[reply] 1690

====

Target: Endothelin-1 receptor (Rattus norvegicus)
Experiment: Antagonist activity at ETA receptor in endothelin-1 stimulated rat MMQ cells assessed as inhibition of phosphatidylinositol hydrolysis in presence of myo-[3H] inositol by anion exchange chromatography
Format: functional, cell-based
test.readout: pIC50
Note: pIC50 values are expressed as the negative base-10 logarithm of concentration in M.

[ask] For the compound CCCCN(CCCC)C(=O)CN1[C@H](c2cc(OC)c3c(c2)OCO3)C[C@@H](C(=O)O)[C@@H]1CC(C)(C)CCC , report pIC50.
[reply] 9.23

====

Assay: Half life in Sprague-Dawley rat at 10 mg/kg, po administered for 12 hrs by HPLC analysis
Type: ADME, organism-based
Details: in vivo
test.readout: half-life (h)
Give the number; h is assumed, so skip it.

[ask] For the compound CCCCN(CCCC)C(=O)CN1[C@H](c2cc(OC)c3c(c2)OCO3)C[C@@H](C(=O)O)[C@@H]1CC(C)(C)CCC , report half-life.
[reply] 2.5

====

Target: Endothelin-1 receptor (Homo sapiens)
Sequence (P25101 whole entry): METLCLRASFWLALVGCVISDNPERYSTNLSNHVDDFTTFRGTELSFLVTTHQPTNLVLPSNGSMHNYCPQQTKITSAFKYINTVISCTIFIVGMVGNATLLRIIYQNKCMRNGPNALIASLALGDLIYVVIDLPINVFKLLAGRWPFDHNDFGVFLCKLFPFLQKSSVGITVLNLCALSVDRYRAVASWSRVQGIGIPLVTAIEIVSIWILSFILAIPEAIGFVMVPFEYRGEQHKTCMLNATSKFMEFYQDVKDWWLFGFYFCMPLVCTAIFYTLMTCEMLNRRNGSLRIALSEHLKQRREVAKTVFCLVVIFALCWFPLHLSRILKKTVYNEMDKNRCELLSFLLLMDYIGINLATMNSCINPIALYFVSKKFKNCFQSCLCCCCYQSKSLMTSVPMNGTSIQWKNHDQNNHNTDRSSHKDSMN
Test: Displacement of [125I]endhothelin-1 from human ETA receptor stably expressed in CHO cells Membrane at 25 degC incubated for 3 hrs by radioligand competition binding assay
Type: cell membranes
test.readout: pIC50
Note: pIC50 values are expressed as the negative base-10 logarithm of concentration in M.

[ask] For the compound CCCCN(CCCC)C(=O)CN1[C@H](c2cc(OC)c3c(c2)OCO3)C[C@@H](C(=O)O)[C@@H]1CC(C)(C)CCC , report pIC50.
[reply] 9.31

====

Assay: Cmax in Beagle dog at 5 mg/kg, po administered for 12 hrs by HPLC analysis
Format: ADME, organism-based, Canis lupus familiaris
Details: in vivo
test.readout: Cmax (ng/mL)
Give the number; ng/mL is assumed, so skip it.

[ask] For the molecule CCCCN(CCCC)C(=O)CN1[C@H](c2cc(OC)c3c(c2)OCO3)C[C@@H](C(=O)O)[C@@H]1CC(C)(C)CCC , report Cmax.
[reply] 1970
